Assay: MRT (0 to infinity) in BALB/c mouse at 2.5 mg/kg, iv measured upto 24 hrs by LC-MS/MS analysis
Type: ADME, organism-based
Settings: in vivo
recorded endpoint: MRT inf (min)
Give just the numeric value; min need not be written.

Provide one value: measured MRT inf of `CCC(CC)N1CCN(C(=O)c2cc(Cn3c(=O)[n-]c(=O)c4ccccc43)ccc2F)CC1=O.[Na+]`
7.8

* * *

Experiment: MRT (0 to t) in BALB/c mouse at 25 mg/kg, po measured upto 24 hrs by LC-MS/MS analysis
Format: ADME, organism-based
Settings: in vivo
Record form. Attribute: MRT last at 24 h. Fill in for each entry.
Give just the numeric value; min need not be written.

Provide one value: measured MRT last at 24 h of `CCC(CC)N1CCN(C(=O)c2cc(Cn3c(=O)[nH]c(=O)c4ccccc43)ccc2F)CC1=O`
32.4

Provide one value: measured MRT last at 24 h of `CCC(CC)N1CCN(C(=O)c2cc(Cn3c(=O)[n-]c(=O)c4ccccc43)ccc2F)CC1=O.[Na+]`
18.6

* * *

Test: Oral bioavailability in BALB/c mouse at 25 mg/kg measured upto 24 hrs by LC-MS/MS analysis
Format: ADME, organism-based
Conditions: in vivo
recorded endpoint: bioavailability (%)
Give just the numeric value; % need not be written.

Provide one value: measured bioavailability of `CCC(CC)N1CCN(C(=O)c2cc(Cn3c(=O)[n-]c(=O)c4ccccc43)ccc2F)CC1=O.[Na+]`
14.7

* * *

Target: Protein mono-ADP-ribosyltransferase TIPARP (Homo sapiens)
Sequence (Q7Z3E1 whole entry): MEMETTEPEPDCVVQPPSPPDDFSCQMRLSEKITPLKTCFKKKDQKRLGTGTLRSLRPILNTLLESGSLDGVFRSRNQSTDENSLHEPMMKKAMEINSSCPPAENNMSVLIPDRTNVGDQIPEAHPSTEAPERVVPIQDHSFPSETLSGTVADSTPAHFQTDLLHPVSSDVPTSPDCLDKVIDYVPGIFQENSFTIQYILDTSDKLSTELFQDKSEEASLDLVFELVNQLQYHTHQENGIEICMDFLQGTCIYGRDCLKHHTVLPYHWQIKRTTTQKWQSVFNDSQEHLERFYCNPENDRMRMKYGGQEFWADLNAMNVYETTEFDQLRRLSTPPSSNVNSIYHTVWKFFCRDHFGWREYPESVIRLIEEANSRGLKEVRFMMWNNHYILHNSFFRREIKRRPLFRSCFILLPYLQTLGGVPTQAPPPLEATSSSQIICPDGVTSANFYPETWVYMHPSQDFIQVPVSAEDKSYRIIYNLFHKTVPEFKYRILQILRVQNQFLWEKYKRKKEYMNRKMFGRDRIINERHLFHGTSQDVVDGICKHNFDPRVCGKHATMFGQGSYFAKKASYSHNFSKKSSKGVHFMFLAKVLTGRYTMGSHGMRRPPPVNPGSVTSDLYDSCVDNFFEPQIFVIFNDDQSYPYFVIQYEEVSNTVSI
Experiment: Inhibition of human recombinant N-terminal FLAG-tagged PARP7 (400 to 657(end) residues) expressed in Sf9 cells
recorded endpoint: pIC50
# pIC50 = -log10(concentration in molar units)

Provide one value: measured pIC50 of `CCC(CC)N1CCN(C(=O)c2cc(Cn3c(=O)[n-]c(=O)c4ccccc43)ccc2F)CC1=O.[Na+]`
9.68

* * *

Assay: AUC (0 to t) in BALB/c mouse at 25 mg/kg, po measured upto 24 hrs by LC-MS/MS analysis
Type: ADME, organism-based
Set-up: time < 24 hrs, dose 25 mg/kg, route po
Details: in vivo
recorded endpoint: AUC(0-t) at 24 h (ng·h/mL)
Give just the numeric value; ng·h/mL need not be written.

Provide one value: measured AUC(0-t) at 24 h of `CCC(CC)N1CCN(C(=O)c2cc(Cn3c(=O)[n-]c(=O)c4ccccc43)ccc2F)CC1=O.[Na+]`
612

Provide one value: measured AUC(0-t) at 24 h of `CCC(CC)N1CCN(C(=O)c2cc(Cn3c(=O)[nH]c(=O)c4ccccc43)ccc2F)CC1=O`
316

* * *

Assay: Tmax in BALB/c mouse at 25 mg/kg, po measured upto 24 hrs by LC-MS/MS analysis
Type: ADME, organism-based
Settings: in vivo
recorded endpoint: Tmax (min)
Give just the numeric value; min need not be written.

Provide one value: measured Tmax of `CCC(CC)N1CCN(C(=O)c2cc(Cn3c(=O)[nH]c(=O)c4ccccc43)ccc2F)CC1=O`
4.8

Provide one value: measured Tmax of `CCC(CC)N1CCN(C(=O)c2cc(Cn3c(=O)[n-]c(=O)c4ccccc43)ccc2F)CC1=O.[Na+]`
4.8

* * *

Target: Poly [ADP-ribose] polymerase 2 (Homo sapiens, UniProt Q9UGN5)
Sequence (Q9UGN5 whole entry): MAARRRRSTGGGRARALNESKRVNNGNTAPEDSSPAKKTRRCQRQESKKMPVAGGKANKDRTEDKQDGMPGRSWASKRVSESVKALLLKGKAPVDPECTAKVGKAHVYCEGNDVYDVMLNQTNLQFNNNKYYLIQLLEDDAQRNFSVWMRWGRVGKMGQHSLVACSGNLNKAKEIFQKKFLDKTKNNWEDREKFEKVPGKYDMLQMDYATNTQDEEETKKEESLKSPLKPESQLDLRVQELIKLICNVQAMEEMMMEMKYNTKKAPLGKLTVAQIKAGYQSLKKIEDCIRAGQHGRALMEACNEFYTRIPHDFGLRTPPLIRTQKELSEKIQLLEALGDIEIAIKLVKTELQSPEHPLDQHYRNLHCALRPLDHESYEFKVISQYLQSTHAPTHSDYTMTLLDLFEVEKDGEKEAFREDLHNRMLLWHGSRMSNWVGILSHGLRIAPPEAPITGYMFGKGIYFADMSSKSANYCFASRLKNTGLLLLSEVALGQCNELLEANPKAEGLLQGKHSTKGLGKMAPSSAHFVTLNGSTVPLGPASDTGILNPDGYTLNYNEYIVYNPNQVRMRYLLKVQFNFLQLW
Assay: Inhibition of human recombinant PARP2 expressed in Escherichia coli BL21(DE3) incubated for 1 hr by ELISA assay
recorded endpoint: IC50 (nM)
Give just the numeric value; nM need not be written.

Provide one value: measured IC50 of `CCCCN1CCN(C(=O)c2cc(Cn3c(=O)[nH]c(=O)c4ccccc43)ccc2F)CC1=O`
0.49

Provide one value: measured IC50 of `O=C1CN(C(=O)c2cc(Cn3c(=O)[nH]c(=O)c4ccccc43)ccc2F)CCN1CCC1CC1`
2.15

Provide one value: measured IC50 of `O=C1CN(C(=O)c2cc(Cn3c(=O)[nH]c(=O)c4ccccc43)ccc2F)CCN1CC(F)(F)F`
1.87

Provide one value: measured IC50 of `O=C1CN(C(=O)c2cc(Cn3c(=O)[nH]c(=O)c4ccccc43)ccc2F)CCN1CC1CC1`
2.63

Provide one value: measured IC50 of `O=C1CN(C(=O)c2cc(Cn3c(=O)[nH]c(=O)c4ccccc43)ccc2F)CCN1CCCO`
6.31

Provide one value: measured IC50 of `O=C1CN(C(=O)c2cc(Cn3c(=O)[nH]c(=O)c4ccccc43)ccc2F)CCN1Cc1ccccc1`
0.77

Provide one value: measured IC50 of `O=C(c1cc(Cn2c(=O)[nH]c(=O)c3ccccc32)ccc1F)N1CCN(C2CCCCC2)C(=O)C1`
0.33

Provide one value: measured IC50 of `CCC(CC)N1CCN(C(=O)c2cc(Cn3c(=O)[n-]c(=O)c4ccccc43)ccc2F)CC1=O.[Na+]`
0.87

Sourced from ChEMBL document CHEMBL5370623
